assay: CEETOX_H295R_ANDR: CeeTox H295R High-throughput Steroidogenesis Assay for Androstenedione (ANDR) (AID 2283436); conditions: actives raise or lower the signal;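 also: human H295R adrenal cells exposed for 48 h with androstenedione measured in medium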
Active and inactive are the calls of the source. The calls were made as follows: active = hit-call score of the fitted dose curve at least 0.9, where 1 is the maximum; inactive = score below 0.9.
Choose one outcome from this list and give only that: 1 = active, 0 = inactive

Hello, I am checking results. What call was entered for Oc1cc2ccccc2cc1O ?
0

Hello, I am checking results. What call was entered for c1cc[nH]c1 ?
0

Hello, I am checking results. What call was entered for CC(C)(c1ccc(Oc2ccc(N)cc2)cc1)c1ccc(Oc2ccc(N)cc2)cc1 ?
1

Hello, I am checking results. What call was entered for Cc1cccc2c1ccc1ccccc12 ?
0

Hello, I am checking results. What call was entered for CCCCCc1ccc(O)cc1 ?
1

Hello, I am checking results. What call was entered for COc1cc([N+](=O)[O-])ccc1N ?
0
